Tested on: MES-induced seizures
protocol.summary: animal or person
Assay type: in vivo, Kunming mice
test.context: Mus musculus, ip; 4 h after administration; doses 30, 100, 300 mg/kg; read-out: MES, dose at which at least one of three animals was protected
Measured minimal effective dose values are reported for all entries that follow.
metric.name: minimal effective dose

{"compound": "Cc1ccccc1C(=O)Nc1ccc(-n2cncn2)cc1", "data.value": "100 mg/kg"}
{"compound": "CCCCC(=O)Nc1ccc(-n2cncn2)cc1", "data.value": "30 mg/kg"}
{"compound": "CCCCCC(=O)Nc1ccc(-n2cncn2)cc1", "data.value": "30 mg/kg"}
{"compound": "Cc1cccc(C(=O)Nc2ccc(-n3cncn3)cc2)c1", "data.value": "30 mg/kg"}
{"compound": "CCCCCCCCC(=O)Nc1ccc(-n2cncn2)cc1", "data.value": "300 mg/kg"}
{"compound": "O=C(Nc1ccc(-n2cncn2)cc1)c1ccccc1C(F)(F)F", "data.value": "300 mg/kg"}
{"compound": "O=C(Nc1ccc(-n2cncn2)cc1)c1ccc(C(F)(F)F)cc1", "data.value": "300 mg/kg"}
{"compound": "Cc1ccc(C(=O)Nc2ccc(-n3cncn3)cc2)cc1", "data.value": "300 mg/kg"}
{"compound": "O=C(Nc1ccc(-n2cncn2)cc1)c1cccc(C(F)(F)F)c1", "data.value": "30 mg/kg"}
{"compound": "CCCCCCC(=O)Nc1ccc(-n2cncn2)cc1", "data.value": "300 mg/kg"}

====

Tested on: MES-induced seizures
protocol.summary: animal or person
Format: in vivo, Kunming mice
test.context: Mus musculus, ip; 4 h after administration; doses 30, 100, 300 mg/kg; read-out: MES, dose at which at least one of three animals was protected
Measured minimal effective dose values are reported for all entries that follow.

{"compound": "O=C(Nc1ccc(-n2cncn2)cc1)c1ccccc1F", "target.or.test.system": "MES-induced seizures", "minimal effective dose [mg/kg]": 100}
{"compound": "O=C(Nc1ccc(-n2cncn2)cc1)c1ccccc1Cl", "target.or.test.system": "MES-induced seizures", "minimal effective dose [mg/kg]": 100}
{"compound": "O=C(Nc1ccc(-n2cncn2)cc1)c1ccc(F)cc1", "target.or.test.system": "MES-induced seizures", "minimal effective dose [mg/kg]": 30}
{"compound": "O=C(Nc1ccc(-n2cncn2)cc1)c1ccc(Cl)cc1", "target.or.test.system": "MES-induced seizures", "minimal effective dose [mg/kg]": 300}
{"compound": "CCCC(=O)Nc1ccc(-n2cncn2)cc1", "target.or.test.system": "MES-induced seizures", "minimal effective dose [mg/kg]": 100}
{"compound": "CCCCCCCC(=O)Nc1ccc(-n2cncn2)cc1", "target.or.test.system": "MES-induced seizures", "minimal effective dose [mg/kg]": 300}
{"compound": "CCC(=O)Nc1ccc(-n2cncn2)cc1", "target.or.test.system": "MES-induced seizures", "minimal effective dose [mg/kg]": 300}
{"compound": "O=C(Nc1ccc(-n2cncn2)cc1)c1ccccc1", "target.or.test.system": "MES-induced seizures", "minimal effective dose [mg/kg]": 300}
{"compound": "O=C(Nc1ccc(-n2cncn2)cc1)c1cccc(F)c1", "target.or.test.system": "MES-induced seizures", "minimal effective dose [mg/kg]": 30}
{"compound": "O=C(Nc1ccc(-n2cncn2)cc1)c1cccc(Cl)c1", "target.or.test.system": "MES-induced seizures", "minimal effective dose [mg/kg]": 300}
